The entries below come with measured half-life at 1 μM values attached.
Experiment: Human liver microsome assay (metabolic stability)
Assay type: in vitro ADME
Conditions: pH 7.4; human liver microsomes 0.2 mg/mL, 1 μM test drug, NADPH, 37° C.; read-out: Half-life (t1/2, min)
Express it in min; write the number only.

Recorded results for 3 molecules are shown here.
{"columns": ["molecule", "half-life at 1 μM, min"],
 "data": [
  ["NC1(c2ccccc2)CCCc2sccc21 (racemic)", 42],
  ["NC1(c2ccccc2)CCCc2scnc21 (racemic)", 196],
  ["c1ccc(C2(N3CCCC3)CCc3oncc3C2)cc1 (racemic)", 62]
]}

Looking up CNC1(c2ccccc2)CCCc2sc(N)nc21 (racemic) , I found its half-life at 1 μM recorded as 98

Looking up c1ccc(C2(N3CCCCC3)CCc3ncsc3C2)cc1 (racemic) , I found its half-life at 1 μM recorded as 210

Looking up Nc1nc2c(s1)CC(c1cccc(Cl)c1)(N1CCCCC1)CC2 (racemic) , I found its half-life at 1 μM recorded as 117

Looking up NC1(c2ccccc2)CCc2ccsc2C1 (racemic) , I found its half-life at 1 μM recorded as 80

Looking up CNC1(c2ccccc2)CCc2ncsc2C1 (racemic) , I found its half-life at 1 μM recorded as 266

meta.source: patent US20260174739A1
